# Test system: HeLa
# ASSAY COMMENT: SRB colorimetric assay of cell growth and viability, HeLa
# Assay type: cell-based, human
# REPORTED CONDITIONS: 48 hours exposure; read-out: LC50 HELA
Where a SMILES comes first, the peptide text is derived from it. Bridges are numbered along the chain shown (N, C = ends). [ ]: non-standard residue; d: D form. The star is where a group is joined. d(aIle) = CC[C@H](C)[C@@H](N)C(=O)O; d(aThr) = C[C@@H](O)[C@@H](N)C(=O)O; Hexanoyl(5-Me) = CC(C)CCCC(=O)*; Orn = NCCC[C@H](N)C(=O)O; Dhb = C/C=C(\N)C(=O)O
The label TRUE is reserved for CC50 strictly under 4 µM; FALSE covers values equal to or above it.

• C/C=C1\NC(=O)[C@H](Cc2ccccc2)NC(=O)[C@@H](C(C)C)NC(=O)[C@@H]([C@@H](C)CC)NC(=O)[C@H](NC(=O)[C@H](NC(=O)[C@H](CCCN)NC(=O)[C@H]2CCCN2C(=O)[C@H](NC(=O)[C@@H](NC(=O)[C@@H](NC(=O)[C@@H](CCC(=O)O)NC(=O)CCCC(C)C)[C@@H](C)O)C(C)C)C(C)C)[C@@H](C)CC)[C@@H](C)OC(=O)[C@H](C(C)C)NC1=O [Compound 39, [D-Glu^13]-KF] = FALSE
• C/C=C1\NC(=O)[C@H](Cc2ccccc2)NC(=O)[C@@H](C(C)C)NC(=O)[C@@H]([C@@H](C)CC)NC(=O)[C@H](NC(=O)[C@H](NC(=O)[C@H](CCCN)NC(=O)[C@H]2CCCN2C(=O)[C@H](NC(=O)[C@H](CCC(N)=O)NC(=O)[C@@H](NC(=O)[C@H](NC(=O)CCCC(C)C)C(C)C)[C@@H](C)O)C(C)C)[C@@H](C)CC)[C@@H](C)OC(=O)[C@H](C(C)C)NC1=O [Compound 48, [Gln^11]-KF] ({Hexanoyl(5-Me)}-[dV]TQ[dV][dP][Orn][d(aIle)][d(aThr)][d(aIle)][dV]F[Dhb]V; ester 8-C) = FALSE
• C/C=C1\NC(=O)[C@H](Cc2ccccc2)NC(=O)[C@@H](C(C)C)NC(=O)[C@@H](C(C)CC)NC(=O)[C@H](NC(=O)[C@H](NC(=O)[C@H](CCCN)NC(=O)[C@H]2CCCN2C(=O)[C@H](NC(=O)[C@@H](NC(=O)[C@@H](NC(=O)[C@H](NC(=O)CCC(C)CC)C(C)C)C(C)O)C(C)C)C(C)C)C(C)CC)C(C)OC(=O)[C@H](C(C)C)NC1=O (stereo partly drawn) = TRUE
• C/C=C1\NC(=O)[C@H](Cc2ccccc2)NC(=O)[C@@H](C(C)C)NC(=O)[C@@H]([C@@H](C)CC)NC(=O)[C@H](NC(=O)[C@H](NC(=O)[C@H](CCCN)NC(=O)[C@H]2CCCN2C(=O)[C@H](NC(=O)[C@@H](NC(=O)[C@@H](NC(=O)[C@@H](CCC(N)=O)NC(=O)CCCC(C)C)[C@@H](C)O)C(C)C)C(C)C)[C@@H](C)CC)[C@@H](C)OC(=O)[C@H](C(C)C)NC1=O [Compound 40, [D-Gln^13]-KF] = TRUE
• C/C=C1\NC(=O)[C@H](Cc2ccccc2)NC(=O)[C@@H](C(C)C)NC(=O)[C@@H]([C@@H](C)CC)NC(=O)[C@H](NC(=O)[C@H](NC(=O)[C@H](CCCN)NC(=O)[C@H]2CCCN2C(=O)[C@H](NC(=O)[C@@H](NC(=O)[C@@H](NC(=O)[C@@H](NC(=O)CCCC(C)C)C(C)C)[C@@H](C)O)C(C)C)C(C)C)[C@@H](C)CC)[C@@H](C)OC(=O)[C@H](C(C)C)NC1=O [Compound 38, [Val^13]-KF] = TRUE
• C/C=C1\NC(=O)[C@H](Cc2ccccc2)NC(=O)[C@@H](C(C)C)NC(=O)[C@@H]([C@@H](C)CC)NC(=O)[C@H](NC(=O)[C@H](NC(=O)[C@H](CCCCN)NC(=O)[C@H]2CCCN2C(=O)[C@H](NC(=O)[C@@H](NC(=O)[C@@H](NC(=O)[C@H](NC(=O)CC[C@@H](C)CC)C(C)C)[C@@H](C)O)C(C)C)C(C)C)[C@@H](C)CC)[C@@H](C)OC(=O)[C@H](C(C)C)NC1=O [Compound 30, [Lys^8, (4S)-MeHex^14]-KF] = TRUE
• C/C=C1\NC(=O)[C@H](Cc2ccccc2)NC(=O)[C@@H](C(C)C)NC(=O)[C@@H]([C@@H](C)CC)NC(=O)[C@H](NC(=O)[C@H](NC(=O)[C@H](CCCN)NC(=O)[C@H]2CCCN2C(=O)[C@H](NC(=O)[C@@H](NC(=O)[C@@H](NC(=O)[C@H](NC(=O)CCCNC(=N)N)C(C)C)[C@@H](C)O)C(C)C)C(C)C)[C@@H](C)CC)[C@@H](C)OC(=O)[C@H](C(C)C)NC1=O [Compound 29, [4-GuBut^14]-KF] = FALSE
• C/C=C1\NC(=O)[C@H](Cc2ccccc2)NC(=O)[C@@H](C(C)C)NC(=O)[C@@H]([C@@H](C)CC)NC(=O)[C@H](NC(=O)[C@H](NC(=O)[C@H](CCCN)NC(=O)[C@H]2CCCN2C(=O)[C@H](NC(=O)[C@@H](NC(=O)[C@@H](NC(=O)CNC(=O)CCCC(C)C)[C@@H](C)O)C(C)C)C(C)C)[C@@H](C)CC)[C@@H](C)OC(=O)[C@H](C(C)C)NC1=O [Compound 33, [Gly^13]-KF] = FALSE
• C/C=C1\NC(=O)[C@H](Cc2ccccc2)NC(=O)[C@@H](C(C)C)NC(=O)[C@@H]([C@@H](C)CC)NC(=O)[C@H](NC(=O)[C@H](NC(=O)[C@H](CCCN)NC(=O)[C@H]2CCCN2C(=O)[C@H](NC(=O)[C@H](CCCN)NC(=O)[C@@H](NC(=O)[C@H](NC(=O)CCCC(C)C)C(C)C)[C@@H](C)O)C(C)C)[C@@H](C)CC)[C@@H](C)OC(=O)[C@H](C(C)C)NC1=O [Compound 49, [Orn^11]-KF] ({Hexanoyl(5-Me)}-[dV]T[Orn][dV][dP][Orn][d(aIle)][d(aThr)][d(aIle)][dV]F[Dhb]V; ester 8-C) = FALSE

Data credit: patent US20070117743A1
